Hi there, I'd appreciate the recorded Transrepression U937 Cells GITAR Emax (%) for every entry that follows.
Biological target: human GR (Homo sapiens)
Construct: naturally expresses the human GR; endogenous in cells
Sequence (P04150 1-777): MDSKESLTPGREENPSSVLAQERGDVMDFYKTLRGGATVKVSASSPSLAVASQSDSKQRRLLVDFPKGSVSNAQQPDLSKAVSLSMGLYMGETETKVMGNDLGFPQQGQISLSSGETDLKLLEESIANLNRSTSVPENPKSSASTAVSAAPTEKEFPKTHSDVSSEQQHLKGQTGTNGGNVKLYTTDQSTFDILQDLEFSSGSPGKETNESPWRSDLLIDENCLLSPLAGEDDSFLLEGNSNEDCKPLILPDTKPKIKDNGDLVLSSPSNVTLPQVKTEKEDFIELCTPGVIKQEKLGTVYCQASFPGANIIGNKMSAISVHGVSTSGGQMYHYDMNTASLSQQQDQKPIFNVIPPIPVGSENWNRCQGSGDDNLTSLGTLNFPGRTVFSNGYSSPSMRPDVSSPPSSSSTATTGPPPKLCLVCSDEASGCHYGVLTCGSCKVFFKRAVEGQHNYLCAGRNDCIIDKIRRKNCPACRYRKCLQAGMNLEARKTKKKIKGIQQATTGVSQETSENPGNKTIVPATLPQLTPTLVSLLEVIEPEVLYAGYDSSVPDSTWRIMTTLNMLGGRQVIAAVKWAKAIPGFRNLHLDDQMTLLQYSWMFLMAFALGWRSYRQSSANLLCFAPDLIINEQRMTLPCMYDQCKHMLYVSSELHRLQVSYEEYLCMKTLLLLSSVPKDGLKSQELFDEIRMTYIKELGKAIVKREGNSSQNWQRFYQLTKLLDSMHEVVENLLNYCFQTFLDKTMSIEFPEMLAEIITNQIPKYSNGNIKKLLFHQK
Assay: Transrepression Assay (GITAR), TNFα-β-lactamase reporter in U937 cells
Type: cell-based
Conditions: activity repressed by 100 nM dexamethasone set as 100%
Answers are plain numbers, in %.

molecule	test_system	measured_number
CC(O)(C[C@]1(CO)CCC2=Cc3c(cnn3-c3ccc(F)cc3)C[C@@]21C)c1cccnc1 (single isomer, unassigned) [Example 25b]	human GR (Homo sapiens)	69.8

# per-item lookup of Transrepression U937 Cells GITAR Emax (%); items listed below
1. Cc1ccc(C(O)C[C@]2(CO)CCC3=Cc4c(cnn4-c4ccc(F)cc4)C[C@@]32C)cc1 (single isomer, unassigned)
2. C[C@]12Cc3cnn(-c4ccc(F)cc4)c3C=C1CC[C@@]2(CO)CC(O)c1ccccn1 (single isomer, unassigned)
3. C[C@]12Cc3cnn(-c4ccc(F)cc4)c3C=C1CC[C@@]2(CO)CC(O)C1CCCCC1 (single isomer, unassigned) [Example 18b]
4. C[C@]12Cc3cnn(-c4ccc(F)cc4)c3C=C1CC[C@@]2(CO)CC(O)c1cccc(C(F)(F)F)c1 (single isomer, unassigned)
5. C[C@]12Cc3cnn(-c4ccc(F)cc4)c3C=C1CC[C@@]2(CO)CC(O)c1ccccc1 (single isomer, unassigned) [Example 13b]
6. COc1cccnc1C(O)C[C@]1(CO)CCC2=Cc3c(cnn3-c3cccc(F)c3)C[C@@]21C (single isomer, unassigned) [Example 26b]
7. C[C@]12Cc3cnn(-c4ccc(F)cc4)c3C=C1CC[C@@]2(CO)CC(O)C1CC1 (single isomer, unassigned) [Example 20b]
8. C[C@]12Cc3cnn(-c4ccc(F)cc4)c3C=C1CC[C@@]2(CO)CC(O)C(F)(F)F (single isomer, unassigned) [Example 28b]

85.0
91.7
97.7
98.4
96.4
51.8
72.0
80.2

# per-item lookup of Transrepression U937 Cells GITAR Emax (%); items listed below
1. C[C@]12Cc3cnn(-c4cccc(F)c4)c3C=C1CC[C@@]2(CO)CC(O)c1ccccn1 (single isomer, unassigned) [Example 19b]
2. CC(C)C(O)C[C@]1(CO)CCC2=Cc3c(cnn3-c3ccc(F)cc3)C[C@@]21C (single isomer, unassigned) [Example 14b]
3. C[C@]12Cc3cnn(-c4ccc(F)cc4)c3C=C1CC[C@@]2(CO)CC(O)c1cccnc1 (single isomer, unassigned) [Example 15b]

1. 86.7
2. 82.3
3. 80.6
